Tested on: PPARg:RXRa 30nM:10nM, anti-RXR (NR concentration 30 nM, RXRa partner concentration 10 nM)
Test description: PBM binding z-score (relative to random genomic background probes); higher = stronger binding; sequences stand for … in GC…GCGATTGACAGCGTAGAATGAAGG
Would you mind labelling by PBM binding z-score? At or over 0.9 is met, under is not met.

Data request: Textbook exercise: given the entry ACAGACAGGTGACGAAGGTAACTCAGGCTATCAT , state whether its PBM binding z-score is greater than or equal to 0.9.
Data returned: not met

Data request: Textbook exercise: given the entry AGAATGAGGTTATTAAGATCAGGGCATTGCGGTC , state whether its PBM binding z-score is greater than or equal to 0.9.
Data returned: met

Data request: Textbook exercise: given the entry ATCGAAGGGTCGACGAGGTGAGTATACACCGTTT , state whether its PBM binding z-score is greater than or equal to 0.9.
Data returned: not met

Data request: Textbook exercise: given the entry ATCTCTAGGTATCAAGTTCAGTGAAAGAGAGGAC , state whether its PBM binding z-score is greater than or equal to 0.9.
Data returned: not met

Data request: Textbook exercise: given the entry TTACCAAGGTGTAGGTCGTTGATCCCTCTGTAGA , state whether its PBM binding z-score is greater than or equal to 0.9.
Data returned: not met

Data request: Textbook exercise: given the entry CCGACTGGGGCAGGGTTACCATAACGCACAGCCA , state whether its PBM binding z-score is greater than or equal to 0.9.
Data returned: not met

Data request: Textbook exercise: given the entry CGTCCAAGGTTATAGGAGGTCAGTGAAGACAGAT , state whether its PBM binding z-score is greater than or equal to 0.9.
Data returned: not met

Data request: Textbook exercise: given the entry ATCGAAAGGTGGAAGGTGAGTATACCCACCCGAA , state whether its PBM binding z-score is greater than or equal to 0.9.
Data returned: not met

Data request: Textbook exercise: given the entry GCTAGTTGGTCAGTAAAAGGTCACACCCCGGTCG , state whether its PBM binding z-score is greater than or equal to 0.9.
Data returned: met

Data request: Textbook exercise: given the entry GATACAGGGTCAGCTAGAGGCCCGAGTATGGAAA , state whether its PBM binding z-score is greater than or equal to 0.9.
Data returned: not met

Data request: Textbook exercise: given the entry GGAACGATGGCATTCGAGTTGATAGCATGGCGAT , state whether its PBM binding z-score is greater than or equal to 0.9.
Data returned: not met

Data request: Textbook exercise: given the entry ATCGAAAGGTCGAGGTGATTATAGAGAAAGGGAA , state whether its PBM binding z-score is greater than or equal to 0.9.
Data returned: met

Data request: Textbook exercise: given the entry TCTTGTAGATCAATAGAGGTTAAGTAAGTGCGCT , state whether its PBM binding z-score is greater than or equal to 0.9.
Data returned: met

Data request: Textbook exercise: given the entry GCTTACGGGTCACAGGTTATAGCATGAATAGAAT , state whether its PBM binding z-score is greater than or equal to 0.9.
Data returned: met

Data request: Textbook exercise: given the entry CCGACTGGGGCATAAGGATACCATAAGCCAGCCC , state whether its PBM binding z-score is greater than or equal to 0.9.
Data returned: not met

Data request: Textbook exercise: given the entry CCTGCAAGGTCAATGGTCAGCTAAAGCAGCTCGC , state whether its PBM binding z-score is greater than or equal to 0.9.
Data returned: met

Data request: Textbook exercise: given the entry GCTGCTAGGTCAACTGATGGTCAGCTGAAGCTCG , state whether its PBM binding z-score is greater than or equal to 0.9.
Data returned: not met

Data request: Textbook exercise: given the entry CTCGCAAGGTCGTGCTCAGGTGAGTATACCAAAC , state whether its PBM binding z-score is greater than or equal to 0.9.
Data returned: not met

Data request: Textbook exercise: given the entry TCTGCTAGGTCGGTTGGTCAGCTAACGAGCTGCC , state whether its PBM binding z-score is greater than or equal to 0.9.
Data returned: met

Data request: Textbook exercise: given the entry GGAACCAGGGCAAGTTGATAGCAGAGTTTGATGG , state whether its PBM binding z-score is greater than or equal to 0.9.
Data returned: not met

Data request: Textbook exercise: given the entry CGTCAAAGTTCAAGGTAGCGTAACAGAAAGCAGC , state whether its PBM binding z-score is greater than or equal to 0.9.
Data returned: met

Data request: Textbook exercise: given the entry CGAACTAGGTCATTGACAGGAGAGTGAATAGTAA , state whether its PBM binding z-score is greater than or equal to 0.9.
Data returned: met

Data request: Textbook exercise: given the entry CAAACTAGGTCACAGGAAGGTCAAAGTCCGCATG , state whether its PBM binding z-score is greater than or equal to 0.9.
Data returned: met

Data request: Textbook exercise: given the entry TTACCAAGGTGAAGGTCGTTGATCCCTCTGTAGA , state whether its PBM binding z-score is greater than or equal to 0.9.
Data returned: met

Data request: Textbook exercise: given the entry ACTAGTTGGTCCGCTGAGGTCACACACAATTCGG , state whether its PBM binding z-score is greater than or equal to 0.9.
Data returned: not met

Data request: Textbook exercise: given the entry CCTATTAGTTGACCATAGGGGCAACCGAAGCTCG , state whether its PBM binding z-score is greater than or equal to 0.9.
Data returned: not met

Data request: Textbook exercise: given the entry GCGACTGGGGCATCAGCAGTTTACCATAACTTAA , state whether its PBM binding z-score is greater than or equal to 0.9.
Data returned: not met

Data request: Textbook exercise: given the entry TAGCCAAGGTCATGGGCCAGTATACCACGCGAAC , state whether its PBM binding z-score is greater than or equal to 0.9.
Data returned: met

Data request: Textbook exercise: given the entry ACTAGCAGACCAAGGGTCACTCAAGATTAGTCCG , state whether its PBM binding z-score is greater than or equal to 0.9.
Data returned: met

Data request: Textbook exercise: given the entry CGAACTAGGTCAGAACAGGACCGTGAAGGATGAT , state whether its PBM binding z-score is greater than or equal to 0.9.
Data returned: met

Data request: Textbook exercise: given the entry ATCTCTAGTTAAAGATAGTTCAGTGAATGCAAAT , state whether its PBM binding z-score is greater than or equal to 0.9.
Data returned: not met

Data request: Textbook exercise: given the entry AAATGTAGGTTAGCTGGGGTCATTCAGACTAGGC , state whether its PBM binding z-score is greater than or equal to 0.9.
Data returned: met

Data request: Textbook exercise: given the entry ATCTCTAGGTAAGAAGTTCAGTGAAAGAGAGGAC , state whether its PBM binding z-score is greater than or equal to 0.9.
Data returned: met

Data request: Textbook exercise: given the entry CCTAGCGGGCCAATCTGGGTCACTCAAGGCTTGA , state whether its PBM binding z-score is greater than or equal to 0.9.
Data returned: not met

Data request: Textbook exercise: given the entry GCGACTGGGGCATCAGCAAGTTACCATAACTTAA , state whether its PBM binding z-score is greater than or equal to 0.9.
Data returned: not met

Data request: Textbook exercise: given the entry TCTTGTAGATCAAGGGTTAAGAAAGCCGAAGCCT , state whether its PBM binding z-score is greater than or equal to 0.9.
Data returned: met

Data request: Textbook exercise: given the entry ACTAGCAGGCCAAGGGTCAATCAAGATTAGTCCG , state whether its PBM binding z-score is greater than or equal to 0.9.
Data returned: met

Data request: Textbook exercise: given the entry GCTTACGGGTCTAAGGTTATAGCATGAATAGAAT , state whether its PBM binding z-score is greater than or equal to 0.9.
Data returned: met

Data request: Textbook exercise: given the entry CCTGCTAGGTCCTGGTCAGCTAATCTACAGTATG , state whether its PBM binding z-score is greater than or equal to 0.9.
Data returned: not met

Data request: Textbook exercise: given the entry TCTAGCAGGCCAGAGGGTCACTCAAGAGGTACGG , state whether its PBM binding z-score is greater than or equal to 0.9.
Data returned: met

Data request: Textbook exercise: given the entry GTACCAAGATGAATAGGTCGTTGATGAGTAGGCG , state whether its PBM binding z-score is greater than or equal to 0.9.
Data returned: not met

Data request: Textbook exercise: given the entry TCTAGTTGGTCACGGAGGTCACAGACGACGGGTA , state whether its PBM binding z-score is greater than or equal to 0.9.
Data returned: met

Data request: Textbook exercise: given the entry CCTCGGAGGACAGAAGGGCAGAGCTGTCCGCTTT , state whether its PBM binding z-score is greater than or equal to 0.9.
Data returned: not met

Data request: Textbook exercise: given the entry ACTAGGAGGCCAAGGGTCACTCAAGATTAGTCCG , state whether its PBM binding z-score is greater than or equal to 0.9.
Data returned: met

Data request: Textbook exercise: given the entry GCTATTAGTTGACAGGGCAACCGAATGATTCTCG , state whether its PBM binding z-score is greater than or equal to 0.9.
Data returned: not met

Data request: Textbook exercise: given the entry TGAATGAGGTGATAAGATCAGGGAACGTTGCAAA , state whether its PBM binding z-score is greater than or equal to 0.9.
Data returned: not met

Data request: Textbook exercise: given the entry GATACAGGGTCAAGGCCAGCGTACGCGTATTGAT , state whether its PBM binding z-score is greater than or equal to 0.9.
Data returned: met

Data request: Textbook exercise: given the entry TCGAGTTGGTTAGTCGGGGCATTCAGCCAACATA , state whether its PBM binding z-score is greater than or equal to 0.9.
Data returned: met

Data request: Textbook exercise: given the entry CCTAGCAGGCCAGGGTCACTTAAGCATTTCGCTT , state whether its PBM binding z-score is greater than or equal to 0.9.
Data returned: not met

Data request: Textbook exercise: given the entry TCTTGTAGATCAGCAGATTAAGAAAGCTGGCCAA , state whether its PBM binding z-score is greater than or equal to 0.9.
Data returned: met

Value source: the supplement of paper PMC6555819
